- Tested on: HepG2
- ASSAY PROCEDURE: GSK_TCMDC: Percent inhibition of human HepG2 cell line. Test compounds present at 10uM.
- Assay type: functional
Binary call on Inhibition: Met from 20% upward, Not met beneath that.

{"COMPOUND": "COc1ccc2ncc(F)c(CCN3CCC(CNCc4cccc5c4OCO5)CC3)c2n1.Cl", "GROUP": "Met"}

Query :: Hi, just wondering whether CCOC(=O)N(C)/N=C/[C@H](CCc1ccccc1)NC(=O)[C@H](CC(C)C)NC(=O)c1cc2cccc(OC)c2o1 shows Inhibition of 20% or higher.
Result :: Not met

Query :: Quick check: does COc1ccc2nccc([C@@H](O)CN3CCC(NC(=O)c4[nH]c5ccccc5c4-c4ccccc4)CC3)c2c1 have Inhibition greater than or equal to 20%?
Result :: Not met

Query :: Please tell me: is the compound O=C(NCc1ccccn1)C(c1cc2ccccc2o1)N1CCN(C(c2ccccc2)c2ccccc2)CC1 (centres undefined) at or over 20% in terms of Inhibition?
Result :: Not met

====

Give Inhibition for every item shown.
- Test system: Plasmodium falciparum
- ASSAY PROCEDURE: GSK_TCMDC: Inhibition of Plasmodium falciparum 3D7 in whole red blood cells, using parasite LDH activity as an index of growth. Test compounds present at 2uM
- Assay type: functional
Numbers only, in %.

Past entries and their recorded results:
{"MOLECULE": "COc1ccc(Cc2c(C)nc3nc(N)nc(N)c3c2C)cc1.Cl", "RESULT UNIT": "%", "Inhibition": 93}
{"MOLECULE": "Cl.O=C(NC1CCC(N2CCN(c3cccc4[nH]ccc34)CC2)CC1)c1cc2cccnc2[nH]1 (configuration not stated)", "RESULT UNIT": "%", "Inhibition": 99}
{"MOLECULE": "Br.CC1(C)NC(N)=NC(=N)N1OCCCO", "RESULT UNIT": "%", "Inhibition": 96}
{"MOLECULE": "COc1ccc(-n2nc(C(=O)NCc3ccccc3OC)c3ccccc3c2=O)cc1", "RESULT UNIT": "%", "Inhibition": 100}
{"MOLECULE": "O=S(=O)(Nc1cccc(CCN2CCC(N3CCCCC3)CC2)c1)c1cccc2ccccc12", "RESULT UNIT": "%", "Inhibition": 99}
{"MOLECULE": "COc1cc2nccc(Nc3ccc4c(cnn4Cc4ccccc4F)c3)c2cc1OC.Cl", "RESULT UNIT": "%", "Inhibition": 100}

Hey, can you go through the list below and give me Inhibition for every item?
1. CN1CCN(c2ccc(CNc3ccc4ncc(-c5ccc(OC(F)(F)F)cc5)n4n3)cc2)CC1
2. CCN(CC)CCN(Cc1ccc(-c2ccc(C(F)(F)F)cc2)cc1)C(=O)Cn1c(CCc2cccc(F)c2F)cc(=O)c2c1CCCC2.O=C(O)C(O)C(O)C(=O)O
3. Cc1cc(NC(=O)c2ccco2)ccc1OC1CCN(Cc2ccc(F)cc2)CC1.O=C(O)C(F)(F)F
4. CN1CCC(C(=O)Nc2ccc(-c3cccc(-c4nc5cc(C(F)(F)F)ccc5[nH]4)c3)cc2)CC1

Result ::
94
100
96
100

====

Would you mind telling me the reported Inhibition of each entry?
- System: Plasmodium falciparum
- ASSAY PROCEDURE: GSK_TCMDC: Inhibition of Plasmodium falciparum 3D7 in whole red blood cells, using parasite LDH activity as an index of growth. Test compounds present at 2uM
- Format: functional
Answers are plain numbers, in %.

// input: 5 compounds below; output: Inhibition for each
1. FC(F)(F)c1cccc(CNC2CCN(CC3CCCCC3)CC2)c1.O=C(O)C(F)(F)F
2. COc1ccc2nccc([C@@H](O)CN3CCC(NC(=O)C(=O)c4c[nH]c5c(C)cccc45)CC3)c2c1
3. Fc1ccc2cc(C=Cc3ccncc3)[nH]c2c1
4. Cc1cc(=NN=Cc2cccc(F)c2)c2cc(F)ccc2[nH]1
5. Cc1ccc(Nc2nc(N/N=C/c3ccccc3[N+](=O)[O-])nc(Nc3ccc([N+](=O)[O-])cc3)n2)cc1C

Result ::
1. 100
2. 100
3. 100
4. 100
5. 100

For each of the items listed, what is its Inhibition?
1. Cc1cc(OCCCN2CCC(NC(=O)c3ccc(Br)cc3)C2)c2ccccc2n1 (centres undefined)
2. CN(CC(=O)Nc1cc(C(F)(F)F)ccc1-n1cncn1)Cc1ccc2ccccc2c1
3. COc1ccc(NC(=O)[C@H](CC(C)C)Nc2cc(C)nc(NCc3ccccc3C)n2)cc1.O=C(O)C(F)(F)F
4. COc1ccc(CC(=O)Nc2ccc(-c3cccc(-c4nc5cccc(C)c5[nH]4)c3)cc2)cc1O

Result ::
85
98
100
96

Data credit: ChEMBL document CHEMBL1157539
